- assaySummary: Accelerated stability screening monitored by SEC
- Assay type: physicochemical
- conditionContext: SEC, 7 days storage at 50° C.
parameterMeasured: Fragment (%)
Your answer should be a plain number; it is taken to be in %.

Asked: Any idea what its Fragment (%) is? The molecule is Hu2B5.3: humanized 2B5-8.0; VH SEQ ID NO 64, VL SEQ ID NO 65 (antibody, V domains shown) VH: EVQLVQSGAEVKKPGASVKVSCKASGYTFTKYWLGWVRQAPGQGLEWIGDIYPGYDYTHYNEKFKDRATLTVDTSTSTAYMELRSLRSDDTAVYYCARSDGSSTYWGQGTLVTVSS VL: DVLMTQTPLSLPVTPGEPASISCTSSQNIVHSNGNTYLEWYLQKPGQSPQLLIYKVSNRFSGVPDRFSGSGSGTDFTLKISRVEAEDVGVYYCFQVSHVPYTFGGGTKVEIKR
Given back: 5.044
